Measured pKd, listed per entry.
Target: Biotinylated SARS-CoV-2 S1 protein (ACRO, S1N-C82E8) (UniProt P0DTC2 16-685)
Test: BLI
Here pKd is given on a logarithmic scale as minus log10 of the concentration in mol/L.

Binder	Reported Result
Ab 26 scFv-Fc (scFv, V domains shown) VH: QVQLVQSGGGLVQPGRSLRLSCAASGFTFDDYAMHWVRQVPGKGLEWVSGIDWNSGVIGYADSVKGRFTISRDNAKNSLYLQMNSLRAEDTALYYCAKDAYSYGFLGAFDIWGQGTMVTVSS VL: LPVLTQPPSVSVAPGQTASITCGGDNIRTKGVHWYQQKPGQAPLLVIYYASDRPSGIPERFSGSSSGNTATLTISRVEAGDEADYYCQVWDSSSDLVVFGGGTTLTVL	10.06

Here is the next item to consider.
Any idea what pKd was measured for Ab 20 (scFv, V domains shown) VH: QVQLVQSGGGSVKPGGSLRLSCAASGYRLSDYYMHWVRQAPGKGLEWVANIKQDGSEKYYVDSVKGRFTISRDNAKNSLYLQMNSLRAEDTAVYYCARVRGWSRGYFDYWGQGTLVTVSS VL: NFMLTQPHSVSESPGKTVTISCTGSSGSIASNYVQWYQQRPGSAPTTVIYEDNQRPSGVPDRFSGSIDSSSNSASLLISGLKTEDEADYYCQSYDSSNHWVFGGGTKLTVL ?
8.30
